- system: T1, human neonatal Fc receptor (hFcRn) (human, UniProt P55899 24-290; P61769 21-119)
- T1 construct: Biotinylated in the ELISA, Octet and yeast assays; also called human FcRn; huFcRn
- T1 sequence (P55899 24-290 limits assumed, chain 1 of 2): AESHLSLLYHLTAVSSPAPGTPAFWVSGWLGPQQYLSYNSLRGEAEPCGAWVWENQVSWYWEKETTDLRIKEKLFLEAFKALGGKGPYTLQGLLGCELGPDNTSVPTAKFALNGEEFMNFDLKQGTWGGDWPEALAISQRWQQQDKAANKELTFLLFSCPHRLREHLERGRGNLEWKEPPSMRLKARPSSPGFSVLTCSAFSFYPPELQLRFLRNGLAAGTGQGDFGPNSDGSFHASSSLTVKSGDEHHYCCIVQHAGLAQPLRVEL
- T1 sequence (P61769 21-119 limits assumed, chain 2 of 2): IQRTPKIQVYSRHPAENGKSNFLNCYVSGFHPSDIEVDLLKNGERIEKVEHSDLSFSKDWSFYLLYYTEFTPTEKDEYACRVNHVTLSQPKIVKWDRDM
- assay_comment: SPR competition pH 5.5
pEC50: −log10 of the molar value.
metric_name: pEC50

* variant Fc-fragment Fc-5-106 (other, soluble elsewhere) EPKSCDKTHTCPPCPAPELLGGPSVFLFPPKPKDTLMISRTPEVTCVVVDVSHEDPEVKFNWYVDGVEVHNAKTKPREEQYNSTYRVVSVLTVLHQDWLNGKEYKCKVSNKALPAPIEKTISKAKGQPREPQVYTLPPSRDELTKNQVSLTCLVKGFYPSDIAVEWESNGGCVFNMFNCGGGQPENNYKTTPPVLDSDGSFFLYSKLTVDKSRWQQGNVFSCSVMHEALHNHYTQKSLSLSPGK | 8.27
* variant Fc-fragment Fc-5-106-M4Q (other) EPKSCDKTHTCPPCPAPELLGGPSVFLFPPKPKDTLMISRTPEVTCVVVDVSHEDPEVKFNWYVDGVEVHNAKTKPREEQYNSTYRVVSVLTVLHQDWLNGKEYKCKVSNKALPAPIEKTISKAKGQPREPQVYTLPPSRDELTKNQVSLTCLVKGFYPSDIAVEWESNGGCVFNQFNCGGGQPENNYKTTPPVLDSDGSFFLYSKLTVDKSRWQQGNVFSCSVMHEALHNHYTQKSLSLSPGK | 7.47
* variant Fc-fragment Fc-5-106-M4L (other) EPKSCDKTHTCPPCPAPELLGGPSVFLFPPKPKDTLMISRTPEVTCVVVDVSHEDPEVKFNWYVDGVEVHNAKTKPREEQYNSTYRVVSVLTVLHQDWLNGKEYKCKVSNKALPAPIEKTISKAKGQPREPQVYTLPPSRDELTKNQVSLTCLVKGFYPSDIAVEWESNGGCVFNLFNCGGGQPENNYKTTPPVLDSDGSFFLYSKLTVDKSRWQQGNVFSCSVMHEALHNHYTQKSLSLSPGK | 8.64
